experimental-target: T1, Human CD137 ECD (human)
T1 construct: also called 4-1BB
T1 sequence (chain, as listed by the source limits assumed): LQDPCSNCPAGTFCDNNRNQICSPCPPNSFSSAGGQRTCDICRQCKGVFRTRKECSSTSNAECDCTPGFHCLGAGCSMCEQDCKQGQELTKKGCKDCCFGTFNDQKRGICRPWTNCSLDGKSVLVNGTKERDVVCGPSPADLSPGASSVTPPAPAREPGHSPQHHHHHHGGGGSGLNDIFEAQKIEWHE
assay-remarks: single mutant vs template dBBDu183H
measured-attribute: fold change of affinity (fold)
Kindly provide the numeric value in fold only, without the unit symbol.

Some solved cases for reference:
H183/L072 VH P61A (antibody, name in Kabat numbering, V domains shown) VH: QVQLVESGGGLVQPGRSLRLSCAASGFTFSNAWMHWVRQAPGKGLEWVAQIKDKGNAYAAYYAASVKGRFTISRDDSKNSIYLQMNSLKTEDTAVYYCHYVHYASASTVLPAFGVDAWGQGTTVTVSS VL: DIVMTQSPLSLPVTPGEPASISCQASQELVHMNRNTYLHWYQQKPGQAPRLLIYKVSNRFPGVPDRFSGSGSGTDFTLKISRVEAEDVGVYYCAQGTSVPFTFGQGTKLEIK = 0.8
H183/L072 VH S62I (antibody, name in Kabat numbering, V domains shown) VH: QVQLVESGGGLVQPGRSLRLSCAASGFTFSNAWMHWVRQAPGKGLEWVAQIKDKGNAYAAYYAPIVKGRFTISRDDSKNSIYLQMNSLKTEDTAVYYCHYVHYASASTVLPAFGVDAWGQGTTVTVSS VL: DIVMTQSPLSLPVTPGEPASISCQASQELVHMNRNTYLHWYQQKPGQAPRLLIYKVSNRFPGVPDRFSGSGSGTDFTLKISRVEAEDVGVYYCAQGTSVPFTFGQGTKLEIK = 0.7

Sample H183/L072 VH M34H (antibody, name in Kabat numbering, V domains shown) VH: QVQLVESGGGLVQPGRSLRLSCAASGFTFSNAWHHWVRQAPGKGLEWVAQIKDKGNAYAAYYAPSVKGRFTISRDDSKNSIYLQMNSLKTEDTAVYYCHYVHYASASTVLPAFGVDAWGQGTTVTVSS VL: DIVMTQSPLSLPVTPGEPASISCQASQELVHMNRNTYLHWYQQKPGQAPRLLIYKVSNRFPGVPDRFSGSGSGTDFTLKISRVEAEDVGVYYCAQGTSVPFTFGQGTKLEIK — what was its fold change of affinity?
0.1
